measure-name: melting point

As a guide, the following entries are already answered.
O=C(Cc1c2c(nn1-c1ccccc1)c(Cl)nc1ccccc12)N1CCN(Cc2ccccc2)CC1 : 210.5 to 211.5 °C
O=c1[nH]c2ccccc2c2c(C(O)CC3CCCCC3)n(-c3ccccc3)nc12 (centres unmarked) [Example 10] : 254 to 259 °C
O=C(Cc1c2c(nn1-c1ccccc1)c(=O)[nH]c1ccccc12)N1CCN(Cc2ccccc2)CC1 : 283 to 285 °C

Given item Cc1c2c(nn1-c1ccccc1)c(=O)[nH]c1ccccc12 [Example 11] , the value recorded as its melting point is > 250 °C

Given item CCCn1nc2c(Cl)nc3ccccc3c2c1C [Example 1] , the value recorded as its melting point is 145 to 147 °C

Given item CC(C)(C)OC(=O)N1CCC(CC(O)c2c3c(nn2-c2ccccc2)c(=O)[nH]c2ccccc23)CC1 (centres unmarked) [Example 8] , the value recorded as its melting point is 253 to 254 °C

Given item CCc1c2c(nn1-c1ccccc1)c(=O)[nH]c1ccccc12 [Example 14] , the value recorded as its melting point is 331 to 334 °C

Given item CCOC(=O)Cc1c2c(nn1CC)c(=O)[nH]c1ccccc12 [Example 17] , the value recorded as its melting point is 233 to 235 °C

Given item Cc1c2c(cnc3ccccc32)nn1-c1ccccc1 [Example 13] , the value recorded as its melting point is 128 to 130 °C

----------
Reported values of melting point for individual entries

As a guide, the following entries are already answered.
CCCn1nc2c(O)nc3ccccc3c2c1CC(C)(C)O : 294 to 296 °C
CC(C)Cc1c2c(nn1C)c(O)nc1ccccc12 : > 280 °C
CCOC(=O)Cc1c2c(nn1-c1ccccc1)c(=O)[nH]c1ccccc12 : 301 to 303 °C
CC(C)(C)OC(=O)N1CCC(CCc2c3c(nn2C(C)(C)C)c(=O)[nH]c2ccccc23)CC1 : 223 to 225 °C

Let us examine a further case.
Given item O=c1[nH]c2ccccc2c2c(C(O)CC3CCNCC3)n(-c3ccccc3)nc12 (centres unmarked) , the value recorded as its melting point is 258 to 261 °C

----------
measure-name: melting point

O=c1[nH]c2ccccc2c2c(CCO)n(-c3ccccc3)nc12 : 310 to 312 °C

Let us examine a further case.
Given item CCn1nc2c(OC)nc3ccccc3c2c1CO , the value recorded as its melting point is 219 to 220 °C

----------
Structures can show the parent of a compound that is named as a salt.
measure-name: melting point

As a guide, the following entries are already answered.
CCCCc1c2c(nn1-c1ccccc1)c(Cl)nc1ccccc12 : 239 to 243 °C
CCCc1c2c(nn1-c1ccccc1)c(=O)[nH]c1ccccc12 : > 300 °C
CC(C)(C)n1nc2c(=O)[nH]c3ccccc3c2c1CO : 295 to 297 °C
Cc1c2c(nn1-c1ccccc1)c(Cl)nc1ccccc12 : 208 to 209 °C
CCc1c2c(nn1-c1ccccc1)c(Cl)nc1ccccc12 : 207 to 209 °C
Clc1nc2ccccc2c2c(CCN3CCN(Cc4ccccc4)CC3)n(-c3ccccc3)nc12 : 75 to 77 °C
O=c1[nH]c2ccccc2c2c(CCN3CCN(Cc4ccccc4)CC3)n(-c3ccccc3)nc12 : 211 to 212.5 °C
Clc1nc2ccccc2c2c(CCC3CCNCC3)n(-c3ccccc3)nc12 (as salt: HCl) : 194 °C

Let us examine a further case.
Given item O=c1[nH]c2ccccc2c2c(CCC3CCNCC3)n(-c3ccccc3)nc12 , the value recorded as its melting point is 250 to 252 °C
